testTarget: BACE1 (Homo sapiens, UniProt P56817)
Sequence (P56817 46-501, species assumed): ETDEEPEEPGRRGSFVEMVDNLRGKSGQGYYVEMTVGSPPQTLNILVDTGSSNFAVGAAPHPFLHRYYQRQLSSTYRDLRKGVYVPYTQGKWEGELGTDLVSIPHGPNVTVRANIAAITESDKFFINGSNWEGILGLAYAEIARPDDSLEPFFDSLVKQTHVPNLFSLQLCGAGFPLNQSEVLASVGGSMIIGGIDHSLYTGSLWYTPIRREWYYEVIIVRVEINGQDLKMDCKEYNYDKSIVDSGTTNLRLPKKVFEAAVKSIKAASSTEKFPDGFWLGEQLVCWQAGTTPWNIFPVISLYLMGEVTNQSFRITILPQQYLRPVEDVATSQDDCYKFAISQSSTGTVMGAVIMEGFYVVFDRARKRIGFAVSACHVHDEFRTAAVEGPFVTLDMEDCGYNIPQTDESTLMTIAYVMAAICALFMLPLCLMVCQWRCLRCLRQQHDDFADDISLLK
assayDetails: In Vitro BACE Cell-based Assay (HEK cell assay): Aβ40 in conditioned medium of cells stably expressing Amyloid Precursor Protein, sandwich ELISA
testSettings: Table IV, class symbols; read-out: HEK cell assay
pIC50: −log10 of the molar value.
endpointLabel: pIC50

>>> result("NC1=N[C@@]2(CO1)c1cc(-c3cccnc3)ccc1Oc1ncccc12")
"< 5.30"
>>> result("CC(C)(C#N)COc1ccc2c(c1)[C@@]1(COC(N)=N1)c1cc(-c3ccccc3)cnc1O2")
"> 7.00"
>>> result("CC(C)(C)OC(=O)n1c(-c2ccc3c(c2)[C@@]2(COC(N)=N2)c2ccccc2O3)cc2ccccc21")
"< 5.30"
>>> result("NC1=N[C@@]2(CO1)c1cc(C#CC3CC3)ccc1Oc1ncc(N3CCOCC3)cc12")
"> 7.00"
>>> result("COc1ccc2c(c1)[C@]1(COC(N)=N1)c1cc(-c3cccc4cccnc34)ccc1O2")
"5.30 to 6.00"

// batch mode: one pIC50 value per listed entry
1. CC(C)(C)OC(=O)N1CC=C(c2ccc3c(c2)[C@]2(COC(N)=N2)c2cc(-c4cccnc4)ccc2O3)CC1
2. CC(=O)Cc1ccc2c(c1)[C@]1(COC(N)=N1)c1cc(-c3cccnc3)ccc1O2
3. COc1ccc2c(c1)[C@]1(COC(N)=N1)c1cc(-c3cncc4ccccc34)ccc1O2

result:
6.00 to 7.00
6.00 to 7.00
5.30 to 6.00
